# protocol-details: Inhibition of rat human chimera TRPV1 channel expressed in CHO cells
# Type: cell-based
pIC50: −log10 of the molar value.
pIC50 values, listed per item
experimental-readout: pIC50

compound | experimental-readout | limit-operator | reported-measurement
CC(C)(C)c1ccc(/C=C/C(=O)Nc2ccc3cccnc3c2)cc1 | pIC50 | = | 8.52
CC(C)(C)c1ccc(C(=O)CC(=O)Nc2ccc3c(c2)OCCO3)cc1 | pIC50 | = | 6.24
Cc1nc(C(F)(F)F)ccc1/C=C/C(=O)Nc1ccc2c(c1)OCCO2 | pIC50 | = | 5.95
CC(C)(C)c1ccc(C(=CC(=O)Nc2ccc3c(c2)OCCO3)c2ccc(C(C)(C)C)cc2)cc1 | pIC50 | = | 5.60
COC[C@@H]1COc2cc(NC(=O)/C=C/c3ccc(C(C)(C)C)cc3)ccc2O1 | pIC50 | = | 5.99
CC(C)(C)c1ccc(/C(=C/C(=O)Nc2ccc3c(c2)OCCO3)c2ccccc2)cc1 | pIC50 | = | 7.32
O=C(/C=C/c1ccc(F)c(F)c1)Nc1ccc2c(c1)OCCO2 | pIC50 | = | 5.88
Cc1ccc(C(=CC(=O)Nc2ccc3c(c2)OCCO3)c2ccc(C)cc2)cc1 | pIC50 | = | 6.61
COc1ccccc1/C(=C/C(=O)Nc1ccc2c(c1)OCCO2)c1ccc(C(C)(C)C)cc1 | pIC50 | = | 6.82
O=C(/C=C/c1cccc2ccccc12)Nc1ccc2c(c1)OCCO2 | pIC50 | = | 6.19
CCOC(=O)c1cc(C(C)(C)C)ccc1/C=C/C(=O)Nc1ccc2c(c1)OCCO2 | pIC50 | = | 7.59
CC(C)c1ccc(/C=C/C(=O)Nc2ccc3c(c2)OCCO3)cc1 | pIC50 | = | 7.01
CC(=O)Nc1ccc(/C=C/C(=O)Nc2ccc3c(c2)OCCO3)cc1 | pIC50 | < | 4.40
CC(C)C/C(=C\C(=O)Nc1ccc2c(c1)OCCO2)c1ccc(C(C)(C)C)cc1 | pIC50 | = | 7.39
CC(C)(C)c1ccc(/C=C/C(=O)Nc2ccc3c(c2)OCCO3)c(Br)c1 | pIC50 | = | 6.80
CC(=O)Oc1ccc(/C=C/C(=O)Nc2ccc3c(c2)OCCO3)cc1 | pIC50 | = | 5.63
COc1ccccc1NC(=O)/C=C/c1ccc(C(C)(C)C)cc1 | pIC50 | = | 6.07
CC(C)(C)c1ccc(/C=C/C(=O)Oc2ccc3c(c2)OCCO3)cc1 | pIC50 | = | 6.06
CC(C)(C)c1ccc(/C=C/C(=O)Nc2ccc3cc[nH]c3c2)cc1 | pIC50 | = | 7.72
O=C(/C=C/c1ccc(Cl)c(Cl)c1)Nc1ccc2c(c1)OCCO2 | pIC50 | = | 6.35
CC/C(=C\c1ccc(C(C)(C)C)cc1)C(=O)Nc1ccc2c(c1)OCCO2 | pIC50 | = | 6.30
CC(C)(C)c1ccc(/C=C/C(=O)Nc2ccc3c(c2)OCCO3)cn1 | pIC50 | = | 6.74
CC(C)(C)c1ccc(/C=C/C(=O)Nc2ccc3c(c2)NCCC3)cc1 | pIC50 | = | 7.26
CN(C)c1ccc(/C=C/C(=O)Nc2ccc3c(c2)OCCO3)cc1 | pIC50 | = | 5.88
O=C(/C=C/c1cccc(C(F)(F)F)c1)Nc1ccc2c(c1)OCCO2 | pIC50 | = | 5.92
CC(C)(C)c1ccc(/C=C/C(=O)Nc2ccc3ccc(=O)[nH]c3c2)cc1 | pIC50 | = | 8.40
CC(C)(C)c1ccc(/C(I)=C/C(=O)Nc2ccc3c(c2)OCCO3)cc1 | pIC50 | = | 6.46
CC(C)(C)c1ccc(/C=C/C(=O)Nc2ccc3c(c2)OCCO3)cc1 (stereo in doubt; 1) | pIC50 | = | 7.64
COc1cccc(NC(=O)/C=C/c2ccc(C(C)(C)C)cc2)c1 | pIC50 | = | 7.24
O=C(/C=C/c1ccc(C(F)(F)F)cc1C(F)(F)F)Nc1ccc2c(c1)OCCO2 | pIC50 | = | 6.35
O=C(/C=C/c1ccc([N+](=O)[O-])cc1)Nc1ccc2c(c1)OCCO2 | pIC50 | = | 6.23
Cc1ccc(/C(=C/C(=O)Nc2ccc3c(c2)OCCO3)c2ccc(C(C)(C)C)cc2)cc1 | pIC50 | = | 7.03
O=C(/C=C/c1ccc(C(F)(F)F)c(F)c1)Nc1ccc2c(c1)OCCO2 | pIC50 | = | 6.89
CC(C)(C)c1ccc(/C(=C/C(=O)Nc2ccc3c(c2)OCCO3)c2cccnc2)cc1 | pIC50 | = | 6.84
CCc1ccc(/C=C/C(=O)Nc2ccc3c(c2)OCCO3)cc1 | pIC50 | = | 6.61
CC(C)(C)c1ccc(/C=C/C(=O)Nc2ccc3c(c2)OC[C@H](CO)O3)cc1 | pIC50 | = | 7.62
O=C(/C=C/c1ccc(I)cc1)Nc1ccc2c(c1)OCCO2 | pIC50 | = | 6.29
O=C(/C=C/c1ccc(F)cc1F)Nc1ccc2c(c1)OCCO2 | pIC50 | = | 5.44
CCCCc1ccc(/C=C/C(=O)Nc2ccc3c(c2)OCCO3)cc1 | pIC50 | = | 6.51
CC(C)(C)c1ccc(/C=C/C(=O)Nc2ccc3c(c2)OCCN3)cc1 | pIC50 | = | 7.59
CC(C)(C)c1ccc(/C=C/C(=O)Nc2ccc3c(c2)O[C@H](CO)CO3)cc1 | pIC50 | = | 6.67
COc1ccc(NC(=O)/C=C/c2ccc(C(C)(C)C)cc2)cc1 | pIC50 | = | 6.78
